System: OVCAR-8 ovarian
Assay: NCI-60 one-dose screen, 48 h (100 = growth as untreated, 0 = no growth, -100 = all killed)
Conditions: 10 µM unless noted
About 83,000 compounds went through this panel and 20% of them were active in at least one assay; those are over-represented in the sample as a whole.
# growth per record follows
Just the number in %, nothing appended.

INSERT INTO results (molecule, data_value) VALUES
  ('Oc1c(CN2CCN(c3ccccc3F)CC2)cc(Br)c2cccnc12', -49),
  ('CCN1C(=O)N(CC)C2Nn3c(s/c(=C4\C(=O)N(C(C)C)c5ccccc54)c3=O)=NC21 (stereo not given)', 39.9),
  ('CCOC(=O)c1cc2c(n1Cc1cccc(OC)c1)-c1oncc1CCC2', 33.4),
  ('O=S(=O)(Nc1ncccn1)c1ccc(NC2Nc3nc4ccccc4nc3S2)cc1 (stereo not given)', 98.8),
  ('Cn1cc(-c2ccc3ncc(-c4ccc(CC(=O)Nc5cc(C(C)(C)C)no5)cc4)nc3c2)cn1', 37);

Query: Can you share its growth? I mean this molecule: Cc1nn(-c2nc3ccccc3[nH]2)c2c1C(c1ccc(OCC(N)=O)cc1)CC(=O)N2 (stereo not given)
Response: 107

Query: Can you share its growth? I mean this molecule: `COC(=O)c1c2c(c(C)[n+]([O-])c1C)C(=O)C=C(NCc1ccccc1)C2=O`
Response: 4.33

Query: Can you share its growth? I mean this molecule: `O=C(Nc1ccc(C23CC4CC(CC(c5ccccc5)(C4)C2)C3)cc1)c1cccs1`
Response: 57.5

Query: Can you share its growth? I mean this molecule: `Cc1ccc(NC2=CC(=O)C(=O)c3ccccc32)c(C)c1`
Response: 27.9

Query: Can you share its growth? I mean this molecule: `Cc1ccc(CN2CCC(C(=O)Nc3ccc(-c4cc5ccccc5[nH]4)cc3)CC2)o1`
Response: 53.3
